For each of the compounds below, state its efflux ratio at 120 min, 2 μM.
experimentSummary: Permeability and efflux in Caco-2 cells
Format: in vitro ADME
conditionDetails: human, Caco-2 monolayer, bidirectional transport, pH 7.4
Note: the reply should be a number with no unit written.

Task: I have this compound here, CNC(=O)c1cc(N2CCN(CCn3c(=O)n(C)c4c3nc(N)n3nc(-c5ccco5)nc43)CC2)c(F)cc1F , and I need its recorded efflux ratio at 120 min, 2 μM.
Output: 53

Task: I have this compound here, CNC(=O)c1cc(N2CCN(CCn3ncc4c3nc(N)n3nc(-c5ccco5)nc43)CC2)c(F)cc1F , and I need its recorded efflux ratio at 120 min, 2 μM.
Output: 8

====

targetOrTestSystem: A2A receptor (Homo sapiens, UniProt P29274)
Construct: host or cells: HEK-293
Sequence (P29274 whole entry): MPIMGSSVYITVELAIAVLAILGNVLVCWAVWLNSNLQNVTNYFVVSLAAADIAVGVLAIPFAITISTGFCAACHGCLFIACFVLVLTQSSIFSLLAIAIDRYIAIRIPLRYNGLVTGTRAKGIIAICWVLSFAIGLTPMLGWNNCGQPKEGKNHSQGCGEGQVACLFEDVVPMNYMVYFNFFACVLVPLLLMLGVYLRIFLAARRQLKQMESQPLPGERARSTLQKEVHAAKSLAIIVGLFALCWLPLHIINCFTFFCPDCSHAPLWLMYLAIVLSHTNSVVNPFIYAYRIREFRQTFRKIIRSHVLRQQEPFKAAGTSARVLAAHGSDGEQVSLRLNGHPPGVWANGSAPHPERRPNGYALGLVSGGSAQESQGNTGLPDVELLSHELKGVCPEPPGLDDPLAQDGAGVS
experimentSummary: Inhibition of cAMP production in HEK cells (LANCE Ultra cAMP, TR-FRET)
Format: cell-based
conditionDetails: HEK-293 cells with stable transfection of A2A receptor, normal stimulation buffer, 3 nM NECA as agonist, 0.1% BSA, read-out: IC50 (nM) (3 nM NECA as agonist, 0.1% BSA)
For each of the compounds below, state its IC50.
Please give a number only; it is taken to be in nM.

Task: I have this compound here, CN(CCN1CCN(c2cc(OCC[S@+](C)[O-])c(F)cc2F)CC1)c1nc(N)n2nc(-c3ccco3)nc2n1 , and I need its recorded IC50.
Output: 0.4

Task: I have this compound here, Nc1nc(NCCN2CCN(c3cc(N4CC[S+]([O-])CC4)c(F)cc3F)CC2)nc2nc(-c3ccco3)nn12 , and I need its recorded IC50.
Output: 1.7

Task: I have this compound here, CN(CCN1CCN(c2cc(OCCS(C)(=O)=O)c(F)cc2F)CC1)c1nc(N)n2nc(-c3ccco3)nc2n1 , and I need its recorded IC50.
Output: 0.6

Task: I have this compound here, CNC(=O)c1cc(N2CCN(CCn3c(=O)n(C)c4c3nc(N)n3nc(-c5ccco5)nc43)CC2)c(F)cc1F , and I need its recorded IC50.
Output: 0.1

====

targetOrTestSystem: A2A receptor (Homo sapiens, UniProt P29274)
Construct: host or cells: HEK-293
experimentSummary: Inhibition of cAMP production in HEK cells (LANCE Ultra cAMP, TR-FRET)
Format: cell-based
conditionDetails: HEK-293 cells with stable transfection of A2A receptor, HSA stimulation buffer, 5 μM Adenosine as agonist, 2.0% HSA, read-out: IC50 (nM) (5 μM Adenosine as agonist, 2.0% HSA)
For each of the compounds below, state its IC50.
Please give a number only; it is taken to be in nM.

Task: I have this compound here, Cn1c(=O)n(CCN2CCN(c3cc(OC4CCNC4=O)c(F)cc3F)CC2)c2nc(N)n3nc(-c4ccco4)nc3c21 (stereo not drawn) , and I need its recorded IC50.
Output: 178

Task: I have this compound here, C[S@+]([O-])CCOc1cc(N2CCN(CCNc3nc(N)n4nc(-c5ccco5)nc4n3)CC2)c(F)cc1F , and I need its recorded IC50.
Output: 25

Task: I have this compound here, CNC(=O)c1cc(N2CCN(CCn3ncc4c3nc(N)n3nc(-c5ccco5)nc43)CC2)c(F)cc1F , and I need its recorded IC50.
Output: 150

Task: I have this compound here, CS(=O)(=O)CCOc1cc(N2CCN(CCNc3nc(N)n4nc(-c5ccco5)nc4n3)CC2)c(F)cc1F , and I need its recorded IC50.
Output: 63

Task: I have this compound here, C[S@+]([O-])CCOc1cc(N2CCN(CCn3ncc4c3nc(N)n3nc(-c5ccco5)nc43)CC2)c(F)cc1F , and I need its recorded IC50.
Output: 162

Task: I have this compound here, Nc1nc(NCCN2CCN(c3ccc(O[C@H]4CC[S@@+]([O-])CC4)cc3F)CC2)nc2nc(-c3ccco3)nn12 , and I need its recorded IC50.
Output: 106

Task: I have this compound here, Nc1nc(NCCN2CCN(c3cc(O[C@H]4CC[S@@+]([O-])CC4)c(F)cc3F)CC2)nc2nc(-c3ccco3)nn12 , and I need its recorded IC50.
Output: 71

Task: I have this compound here, CN(CCN1CCN(c2cc(OCC[S@@+](C)[O-])c(F)cc2F)CC1)c1nc(N)n2nc(-c3ccco3)nc2n1 , and I need its recorded IC50.
Output: 28

Task: I have this compound here, C[S@@+]([O-])CCOc1cc(N2CCN(CCn3ncc4c3nc(N)n3nc(-c5ccco5)nc43)CC2)c(F)cc1F , and I need its recorded IC50.
Output: 131

Task: I have this compound here, C[S@@+]([O-])CCOc1cc(N2CCN(CCNc3nc(N)n4nc(-c5ccco5)nc4n3)CC2)c(F)cc1F , and I need its recorded IC50.
Output: 41

Task: I have this compound here, CN(CCN1CCN(c2cc(OCCS(C)(=O)=O)c(F)cc2F)CC1)c1nc(N)n2nc(-c3ccco3)nc2n1 , and I need its recorded IC50.
Output: 41

Task: I have this compound here, Nc1nc(NCCN2CCN(c3cc(N4CC[S+]([O-])CC4)c(F)cc3F)CC2)nc2nc(-c3ccco3)nn12 , and I need its recorded IC50.
Output: 81

Task: I have this compound here, CNC(=O)c1cc(N2CCN(CCn3c(=O)n(C)c4c3nc(N)n3nc(-c5ccco5)nc43)CC2)c(F)cc1F , and I need its recorded IC50.
Output: 176

Task: I have this compound here, Cn1c(=O)n(CCN2CCN(c3ccc(OCC[S+](C)[O-])cc3F)CC2)c2nc(N)n3nc(-c4ccco4)nc3c21 (stereo not drawn) , and I need its recorded IC50.
Output: 72

Task: I have this compound here, Cn1c(=O)n(CCN2CCN(c3cc(OCC[S@@+](C)[O-])c(F)cc3F)CC2)c2nc(N)n3nc(-c4ccco4)nc3c21 , and I need its recorded IC50.
Output: 70

Task: I have this compound here, C[S@+]([O-])c1cc(N2CCN(CCNc3nc(N)n4nc(-c5ccco5)nc4n3)CC2)c(F)cc1F , and I need its recorded IC50.
Output: 201

Task: I have this compound here, Cn1c(=O)n(CCN2CCN(c3cc(OCCS(C)(=O)=O)c(F)cc3F)CC2)c2nc(N)n3nc(-c4ccco4)nc3c21 , and I need its recorded IC50.
Output: 104

Task: I have this compound here, C[S@@+]([O-])c1cc(N2CCN(CCNc3nc(N)n4nc(-c5ccco5)nc4n3)CC2)c(F)cc1F , and I need its recorded IC50.
Output: 73

Task: I have this compound here, CN(CCN1CCN(c2cc(OCC[S@+](C)[O-])c(F)cc2F)CC1)c1nc(N)n2nc(-c3ccco3)nc2n1 , and I need its recorded IC50.
Output: 33

Task: I have this compound here, Cn1c(=O)n(CCN2CCN(c3cc(OCC[S@+](C)[O-])c(F)cc3F)CC2)c2nc(N)n3nc(-c4ccco4)nc3c21 , and I need its recorded IC50.
Output: 64

Task: I have this compound here, Nc1nc(NCCN2CCN(c3ccc(C(=O)N4CC[S+]([O-])CC4)cc3F)CC2)nc2nc(-c3ccco3)nn12 , and I need its recorded IC50.
Output: 632

====

experimentSummary: Permeability and efflux in Caco-2 cells
Assay type: in vitro ADME
conditionDetails: human, Caco-2 monolayer, bidirectional transport, pH 7.4
For each of the compounds below, state its efflux ratio at 120 min, 2 μM.

Task: I have this compound here, Nc1nc(NCCN2CCN(c3ccc(O[C@H]4CC[S@@+]([O-])CC4)cc3F)CC2)nc2nc(-c3ccco3)nn12 [Compound 19] , and I need its recorded efflux ratio at 120 min, 2 μM.
Output: > 110

Task: I have this compound here, Nc1nc(NCCN2CCN(c3cc(O[C@H]4CC[S@@+]([O-])CC4)c(F)cc3F)CC2)nc2nc(-c3ccco3)nn12 [Compound 14] , and I need its recorded efflux ratio at 120 min, 2 μM.
Output: > 900

Task: I have this compound here, Cn1c(=O)n(CCN2CCN(c3cc(OC4CCNC4=O)c(F)cc3F)CC2)c2nc(N)n3nc(-c4ccco4)nc3c21 (centres unmarked) [Compound 21] , and I need its recorded efflux ratio at 120 min, 2 μM.
Output: > 150

Task: I have this compound here, Nc1nc(NCCN2CCN(c3ccc(C(=O)N4CC[S+]([O-])CC4)cc3F)CC2)nc2nc(-c3ccco3)nn12 [Compound 18] , and I need its recorded efflux ratio at 120 min, 2 μM.
Output: > 80

Task: I have this compound here, C[S@@+]([O-])CCOc1cc(N2CCN(CCn3ncc4c3nc(N)n3nc(-c5ccco5)nc43)CC2)c(F)cc1F [Compound 13] , and I need its recorded efflux ratio at 120 min, 2 μM.
Output: > 100

Task: I have this compound here, Cn1c(=O)n(CCN2CCN(c3cc(OCC[S@@+](C)[O-])c(F)cc3F)CC2)c2nc(N)n3nc(-c4ccco4)nc3c21 [Compound 8] , and I need its recorded efflux ratio at 120 min, 2 μM.
Output: > 400

Task: I have this compound here, C[S@@+]([O-])CCOc1cc(N2CCN(CCNc3nc(N)n4nc(-c5ccco5)nc4n3)CC2)c(F)cc1F [Compound 11] , and I need its recorded efflux ratio at 120 min, 2 μM.
Output: > 600

Task: I have this compound here, Cn1c(=O)n(CCN2CCN(c3cc(OCCS(C)(=O)=O)c(F)cc3F)CC2)c2nc(N)n3nc(-c4ccco4)nc3c21 [Compound 9] , and I need its recorded efflux ratio at 120 min, 2 μM.
Output: > 300

Task: I have this compound here, C[S@+]([O-])CCOc1cc(N2CCN(CCNc3nc(N)n4nc(-c5ccco5)nc4n3)CC2)c(F)cc1F [Compound 10] , and I need its recorded efflux ratio at 120 min, 2 μM.
Output: > 900

Task: I have this compound here, CN(CCN1CCN(c2cc(OCCS(C)(=O)=O)c(F)cc2F)CC1)c1nc(N)n2nc(-c3ccco3)nc2n1 [Compound 5] , and I need its recorded efflux ratio at 120 min, 2 μM.
Output: > 340

Task: I have this compound here, Cn1c(=O)n(CCN2CCN(c3cc(OCC[S@+](C)[O-])c(F)cc3F)CC2)c2nc(N)n3nc(-c4ccco4)nc3c21 [Compound 7] , and I need its recorded efflux ratio at 120 min, 2 μM.
Output: > 500
